Molecular target: His6 tagged human recombinant FABP4 (Homo sapiens, UniProt P15090)
Construct: purchased Cayman Chemicals 10009549
Sequence (P15090 whole entry): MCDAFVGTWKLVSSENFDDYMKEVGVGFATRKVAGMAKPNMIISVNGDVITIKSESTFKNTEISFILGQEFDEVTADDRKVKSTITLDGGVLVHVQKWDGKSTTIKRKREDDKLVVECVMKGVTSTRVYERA
Experiment: FABP4 TR-FRET assay: displacement of fluorescent fatty acid BODIPY FL C12
Details: inhibition of BODIPY FL C12 binding to His6-FABP4; 1.2 μL of 1.085 mM compound in DMSO per well; triplicates, mean percent inhibition
metric: inhibition at 1085 µM (stock) (%)
Please state the figure in %; there is no need to write the unit.

* CCCCc1ccc2nc(N(C)CC(=O)O)cc(-c3cccc(F)c3)c2c1 | 58.9
* CCCCc1ccc2nc(OCC(=O)O)c(C(=O)O)c(-c3ccccc3)c2c1 | 44.6
* CCCCc1ccc2nc(N(C)CC(=O)O)cc(-c3ccc(F)cc3)c2c1 | 58.6
* CCCCCCc1ccc2nc(N3CCCC(C(=O)O)C3)cc(-c3cccnc3)c2c1 (centres unmarked) | 91.6
* CCCCc1ccc2nc(N(C)CC(C)C(=O)O)cc(-c3cccnc3)c2c1 (centres unmarked) | 46.4

Query: Fill in: inhibition at 1085 µM (stock) of CCCCCc1ccc2nc(N(C)CC(=O)O)cc(-c3cccc(C#N)c3)c2c1 is ___
Result: 65.1

Query: // repeat for CCCCCCc1ccc2nc(N(C)CC(=O)O)cc(Oc3ccncc3)c2c1 and report
Result: 10.7

Query: Now try CCCCc1ccc2nc(N(C)CC(C)C(=O)O)cc(-c3ccc(F)cc3)c2c1 (centres unmarked) .
Result: 74

Query: Thanks! And CCCCc1ccc2nc(N(C)CC(=O)O)cc(-c3ccccc3C)c2c1 ?
Result: 99.7

Query: Next record, please: CCCCc1ccc2nc(N3CCCC3C(=O)O)cc(-c3ccccc3)c2c1 (centres unmarked)
Result: 92.5
